# assay_target: T1, Lsb3, P43603
# T1 sequence (P43603 385-451, looked up): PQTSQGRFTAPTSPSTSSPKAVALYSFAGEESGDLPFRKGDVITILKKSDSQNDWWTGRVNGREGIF
# assay_explanation: SPOT array
# measurement_parameters: median of control spots 406
Exam item: assign condition met to entries whose SPOT intensity is below 60 and condition not met to entries at or above 60. Note that a value of exactly 60 receives condition not met.

>>> label_value("APERAVPILPPRNNV")
"condition not met"

Is it true that SPOT intensity reported for NNFYRPLLRSVLVLL is less than 60?
condition met

Is it true that SPOT intensity reported for TPEIPPPLPPKIMVH is less than 60?
condition not met

Is it true that SPOT intensity reported for KRRAPPPVPKKPSSR is less than 60?
condition not met

Is it true that SPOT intensity reported for GQYRRTIVIPRRFFT is less than 60?
condition met

Is it true that SPOT intensity reported for DDEDVPPQLPTRTKS is less than 60?
condition not met
